target: Aβ42 (Homo sapiens); assay: Th-T (thioflavin-T) assay of Aβ42 aggregation; assay type: biochemical; settings: column suffix _20; reading M15
Sequence (P05067 672-713): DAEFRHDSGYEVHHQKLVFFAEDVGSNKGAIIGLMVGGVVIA
readout-label: Th-T assay signal, mean of three wells (Fig. 7a)

Example compounds with recorded Th-T assay signal, mean of three wells (Fig. 7a):
| compound | endpoint-result |
| --- | --- |
| C=C1CCC2C(C)(CCC=C(C)C)C(O)CCC2(C)C1Cc1c(OC)oc(CO)c(C)c1=O (centres unmarked) | 2.602 |
| C=C1CCC2C(C)(CCC=C(C)C)C(O)CCC2(C)C1Cc1c(OC)oc(C)c(C(=O)OC)c1=O (centres unmarked) | 0.6574 |
| C=C1CC[C@@H]2[C@](C)(CC[C@H]3O[C@H](C=C(C)C)C[C@@]23C)[C@@H]1Cc1c(OC)oc(CO)c(C)c1=O | 2.436 |
| C=C1CC[C@@H]2[C@](C)(CC[C@H]3O[C@H](C=C(C)C)C[C@@]23C)[C@@H]1Cc1c(OC)oc(CO)c(C(=O)OC)c1=O | 0.1958 |

Next up:
Task: Fill in: Th-T assay signal, mean of three wells (Fig. 7a) of C=C1CCC2C(C)(CCC=C(C)C)C(O)CCC2(C)C1Cc1c(OC)oc(CO)c(C(=O)OC)c1=O (centres unmarked) is ___
Result: 0.1861
